Data origin: the NIST ThermoML archive (doi:10.1021/je200637v)

Experiment: activity coefficient (dimensionless); of the first substance listed, at infinite dilution; xn = mol fraction of the nth substance listed
Details: 343.15 K; Liquid; Chromatography; x1 = 0
Assign 1.0 to entries whose activity coefficient meets or exceeds 0.7; assign 0.0 to the rest.

1. CCO [ethanol] + CCCCCCCC[N+](CCCCCCCC)(CCCCCCCC)CCCCCCCC.O=S(=O)([N-]S(=O)(=O)C(F)(F)F)C(F)(F)F : 1.0
2. CCCCCCCCCC [decane] + CCCCCCCCCC[N+](C)(C)C.O=S(=O)([N-]S(=O)(=O)C(F)(F)F)C(F)(F)F : 1.0
3. CC(C)OC(C)C [diisopropyl ether] + CCCCCCCCCC[N+](C)(C)C.O=S(=O)([N-]S(=O)(=O)C(F)(F)F)C(F)(F)F : 1.0
4. CCO [ethanol] + CCCC[N+](C)(CCCC)CCCC.O=S(=O)([N-]S(=O)(=O)C(F)(F)F)C(F)(F)F : 1.0
5. ClCCl [dichloromethane] + CCCCCCCCCC[N+](C)(C)C.O=S(=O)([N-]S(=O)(=O)C(F)(F)F)C(F)(F)F : 0.0
